assayed.target: Flag-tagged SIN3A (a.a. 1-400) (Homo sapiens, UniProt Q96ST3)
Sequence (Q96ST3 1-400): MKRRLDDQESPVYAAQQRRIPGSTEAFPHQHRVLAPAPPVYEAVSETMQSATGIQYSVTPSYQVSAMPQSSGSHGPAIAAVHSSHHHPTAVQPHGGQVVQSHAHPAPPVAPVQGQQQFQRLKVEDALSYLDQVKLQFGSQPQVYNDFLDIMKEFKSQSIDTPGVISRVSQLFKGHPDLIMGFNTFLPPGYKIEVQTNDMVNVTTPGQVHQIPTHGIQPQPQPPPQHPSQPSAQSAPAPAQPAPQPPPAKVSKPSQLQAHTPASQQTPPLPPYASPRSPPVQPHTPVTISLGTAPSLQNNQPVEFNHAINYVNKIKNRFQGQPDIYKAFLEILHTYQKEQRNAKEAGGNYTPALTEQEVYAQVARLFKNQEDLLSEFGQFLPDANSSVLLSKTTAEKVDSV
experimental.protocol: competitive gel-based ABPP, apparent IC50
conditions.used: probe 17; HEK293T cell lysates; read-out: apparent IC50, blockade of probe labeling of K155
metric.name: pIC50
Scale note: pIC50 = -log10(concentration in M).

What value of pIC50 on Flag-tagged SIN3A (a.a. 1-400) (Homo sapiens, UniProt Q96ST3) does O=C(Oc1c(F)c(F)c(F)c(F)c1F)c1cc(C(F)(F)F)cc(C(F)(F)F)c1 [fragment 21] have?
5.30
